# experimental system: SARS-CoV-2 3CLpro (Severe acute respiratory syndrome coronavirus 2, UniProt P0DTD1)
# protocol summary: FRET-based assay of 3CLpro inhibitory activity
# Format: biochemical
# recorded conditions: 0.02 µM 3CLpro, 5 µM peptide substrate, 20 minutes incubation at room temperature; triplicate, average and standard deviation; read-out: IC50
test readout: pIC50
Worth noting: pIC50 values are minus log10 of concentrations stated in mol/L.

Input: What measured pIC50 goes with CSc1ccc2c(c1)NC(=O)C(F)(F)C2=O [Compound 14] ?
Output: 6.08

###

# experimental system: SARS-CoV-2 3CLpro (Severe acute respiratory syndrome coronavirus 2)
# protocol summary: Binding assessment by Nuclear Magnetic Resonance (WaterLOGSY and STD)
# Set-up: key: +++: strong binder; ++: binder; +/-: not to very low binder
# recorded conditions: NMR (WaterLOGSY, STD); 10 µM of 3CLpro, ligand 100 µM to 2 mM, pH=7.3
test readout: Binding Activity

Before answering, review these 6 worked examples.
O=C1Nc2cc(SC3CC3)ccc2C(O)C1(F)F (single isomer, unassigned)    ++
CSc1cc2c(cn1)C(O)C(F)(F)C(=O)N2 (single isomer, unassigned)    ++
CSc1ccc2c(c1)NC(=O)CC2=O [reference compound]    +/-
CSc1ccc2c(c1)NCC(F)(F)C2C (single isomer, unassigned)    ++
CSc1ccc2c(c1)NC(=O)C(F)(F)C2O (single isomer, unassigned)    +++
CSc1ccc2c(c1)NCC(F)(F)C2O (single isomer, unassigned)    ++

Input: What measured Binding Activity goes with CSc1ccc2c(c1)NC(=O)C(F)(F)C2(C)O (stereo not shown) [reference compound] ?
Output: +/-

Input: What measured Binding Activity goes with Cc1nn(C)c2c1C(O)C(F)(F)C(=O)N2 (single isomer, unassigned) ?
Output: ++

Input: What measured Binding Activity goes with O=C1Nc2ccccc2C(O)C1(F)F (stereo not shown) [reference compound] ?
Output: +/-

Input: What measured Binding Activity goes with CSc1cc(F)c2c(c1)NC(=O)C(F)(F)C2O (single isomer, unassigned) ?
Output: ++

Input: What measured Binding Activity goes with CSc1ccc2c(c1)NC(=O)CC2C (stereo not shown) [reference compound] ?
Output: +/-

Input: What measured Binding Activity goes with CSc1ccc2c(c1)NC(=O)C(F)(F)C2C (single isomer, unassigned) ?
Output: +++

Input: What measured Binding Activity goes with CSc1cc2c(cn1)C(O)C(F)(F)CN2 (single isomer, unassigned) ?
Output: +++
